Parameter 'readout' = pIC50; parameter 'system' = HSV-1 ribonucleotide reductase (Human herpesvirus 1, UniProt P08543).
Sequence (P08543 whole entry): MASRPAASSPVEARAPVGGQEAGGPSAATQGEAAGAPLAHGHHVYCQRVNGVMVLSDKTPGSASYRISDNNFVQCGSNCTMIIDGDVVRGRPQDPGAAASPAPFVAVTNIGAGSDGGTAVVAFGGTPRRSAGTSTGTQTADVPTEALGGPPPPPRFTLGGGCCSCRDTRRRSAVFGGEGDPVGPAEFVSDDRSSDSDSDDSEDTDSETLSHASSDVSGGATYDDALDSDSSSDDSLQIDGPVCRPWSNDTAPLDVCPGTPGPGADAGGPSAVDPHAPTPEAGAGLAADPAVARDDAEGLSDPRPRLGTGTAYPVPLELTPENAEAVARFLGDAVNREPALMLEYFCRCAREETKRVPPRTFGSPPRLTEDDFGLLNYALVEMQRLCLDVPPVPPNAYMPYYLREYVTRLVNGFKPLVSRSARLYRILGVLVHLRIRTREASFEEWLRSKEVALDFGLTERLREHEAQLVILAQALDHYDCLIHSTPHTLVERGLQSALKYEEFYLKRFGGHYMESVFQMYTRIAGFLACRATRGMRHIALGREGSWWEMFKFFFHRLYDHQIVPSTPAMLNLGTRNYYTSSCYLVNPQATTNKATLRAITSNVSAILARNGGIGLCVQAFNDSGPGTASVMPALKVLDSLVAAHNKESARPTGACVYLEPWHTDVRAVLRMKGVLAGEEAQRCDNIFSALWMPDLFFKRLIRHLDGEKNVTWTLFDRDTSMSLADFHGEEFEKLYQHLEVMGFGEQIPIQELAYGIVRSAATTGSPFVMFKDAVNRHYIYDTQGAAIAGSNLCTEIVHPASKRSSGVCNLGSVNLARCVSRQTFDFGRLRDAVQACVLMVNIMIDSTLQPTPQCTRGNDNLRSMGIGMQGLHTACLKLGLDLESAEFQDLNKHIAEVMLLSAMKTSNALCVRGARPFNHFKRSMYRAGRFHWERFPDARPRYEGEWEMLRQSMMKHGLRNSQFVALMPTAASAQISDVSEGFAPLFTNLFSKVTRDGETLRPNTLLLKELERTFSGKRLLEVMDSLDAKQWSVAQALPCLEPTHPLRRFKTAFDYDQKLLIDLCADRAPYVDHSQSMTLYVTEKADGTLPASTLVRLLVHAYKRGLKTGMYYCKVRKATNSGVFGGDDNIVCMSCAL
pIC50 is a log-scale quantity: -log10 of the concentration expressed in molar.

get_value(item= CCCC(CCC)NC(=O)N[C@H](C(=O)N[C@@H](CC(=O)N1CCCC1)C(=O)N[C@H](C(=O)N[C@H](CO)CC(C)(C)C)C1(C(=O)O)CCCC1)C(C)(C)C(=O)O , readout=pIC50) returns 6.70

get_value(item= CCCC(CCC)NC(=O)N[C@H](C(=O)N[C@@H](CC(=O)N1CCCC1)C(=O)N[C@H](C(=O)N[C@H](C)C(C)(C)C)C1(C(=O)O)CCCC1)C(C)(C)C , readout=pIC50) returns 6.74

get_value(item= CCCC(CCC)NC(=O)N[C@H](C(=O)N[C@@H](CC(=O)C1CCC1)C(=O)N[C@H](C(=O)NCC(C)(C)C)C1(C(=O)O)CCCC1)C(C)(C)C , readout=pIC50) returns 6.60

get_value(item= CCCC(CCC)NC(=O)N[C@H](C(=O)N[C@@H](CC(=O)C(CC)CC)C(=O)N[C@H](C(=O)NCC(C)(C)C)C1(C(=O)O)CCCC1)C(C)(C)C , readout=pIC50) returns 6.40

get_value(item= CC(C)(C)C[C@@H](CO)NC(=O)[C@@H](NC(=O)[C@H](CC(=O)N1CCCC1)NC(=O)[C@@H](NC(=O)NCc1ccccc1)C(C)(C)C)C1(C(=O)O)CCCC1 , readout=pIC50) returns 6.39

get_value(item= CCC(CC)NC(=O)N[C@H](C(=O)N[C@@H](CC(=O)N1CCCC1)C(=O)N[C@H](C(=O)N[C@@H](CC(C)(C)C)C(=O)O)[C@H](C(=O)O)C(C)C)C(C)(C)C , readout=pIC50) returns 7.14

get_value(item= CCC(CC)NC(=O)N[C@H](C(=O)N[C@@H](CC(=O)N1CCCC1)C(=O)N[C@H](C(=O)NCC(C)(C)C)C1(C(=O)O)CCCC1)C(C)(C)C , readout=pIC50) returns 6.89

get_value(item= CCCC(CCC)NC(=O)N[C@H](C(=O)N[C@@H](CC(=O)C1CCCC1)C(=O)N[C@H](C(=O)NCC(C)(C)C)C1(C(=O)O)CCCC1)C(C)(C)C , readout=pIC50) returns 6.70
